test: Inhibition of recombinant Trypanosoma brucei N-terminal His6-tagged AdoMetDC/prozyme hetrodimer expressed in Escherichia coli BL21/DE3 cells at pH 7.7 by RapidFire-MS-based enzyme activity assay
RECORDED_METRIC: IC50 (µM)
# unit: µM | format: bare number

[ask] GET /values?readout=IC50&item= `Cc1cc(Nc2cc(Cl)cc(Cl)c2)nc(N)n1`
[reply] 30

----------
assay: Inhibition of recombinant Trypanosoma brucei N-terminal His6-tagged AdoMetDC/prozyme hetrodimer expressed in Escherichia coli BL21/DE3 cells at pH 7.2 by RapidFire-MS-based enzyme activity assay
pIC50: −log10 of the molar value.
Entries are grouped by pIC50 into these classes: lowest = under 4, middle = from 4 up to 5, highest = 5 and over

Worked examples follow.
smiles=Cc1cc(Nc2ccc(-c3cc(Cl)cc(Cl)c3)cc2)nc(N)n1 label=lowest
smiles=Cc1cc(Nc2cc(Cl)cc(-c3cnn(C)c3)c2)nc(N)n1 label=lowest
smiles=Cc1cc(Nc2cc(Cl)cc(Br)c2)nc(N)n1 label=highest
smiles=Cc1cc(Nc2cc(Cl)c(F)c(Cl)c2F)nc(N)n1 label=highest
smiles=Cc1ccc(-c2cc(Cl)cc(Nc3cc(C)nc(N)n3)c2)cc1 label=highest

[ask] Lab note: which band did `Cc1cc(Nc2cccc(Cl)c2Cl)nc(N)n1` land in?
[reply] lowest

[ask] Given `CCc1cc(Nc2cc(C)nc(N)n2)cc(-c2ccc(F)cc2)c1` , name the class its pIC50 places it in.
[reply] highest

[ask] Which category does the recorded pIC50 put `Cc1cc(Nc2cc(Cl)cc(-c3cncnc3)c2)nc(N)n1` in?
[reply] lowest

[ask] For this compound, which bin applies? `CCOc1cc(Br)cc(Nc2cc(C)nc(N)n2)c1`
[reply] highest

[ask] For this compound, which bin applies? `Cc1cc(Nc2cc(Cl)cc(-c3ccc4ccccc4c3)c2)nc(N)n1`
[reply] middle

[ask] Classify this compound: `Cc1cc(Nc2cc(Cl)cc(Cl)c2O)nc(N)n1`
[reply] middle

[ask] Into which bin does this compound go? `Cc1cc(Nc2cc(-c3ccccc3)cc(-c3ccccc3)c2)nc(N)n1`
[reply] lowest

[ask] Which of the defined bands does the recorded pIC50 of `Cc1cc(Nc2cc(Br)c(F)c(Br)c2)nc(N)n1` sit within?
[reply] highest

[ask] Please let me know in which category the item `Cc1cc(Nc2cc(F)cc(F)c2)nc(N)n1` belongs.
[reply] lowest

[ask] Which pIC50 band matches `Cc1cc(Nc2cc(Cl)cc(-c3ccc(Cl)cc3)c2)nc(N)n1` ?
[reply] highest

[ask] Which pIC50 category applies to `Nc1cc(Nc2cc(Cl)cc(Cl)c2)ccn1` here?
[reply] middle

[ask] Hello team, could you let me know which band the following compound falls into: `Cc1cc(Nc2ccc(Cl)cc2)nc(N)n1`
[reply] lowest

[ask] State the class of the compound shown: `Cc1cc(Nc2cc(Cl)cc(Cl)c2)cc(N)n1`
[reply] middle

Value source: ChEMBL document CHEMBL4033778
